All figures here come from PubChem BioAssay.

# TARGET_OF_ASSAY: Alpha-bungarotoxin (Bungarus multicinctus) (UniProt P60615)
# Sequence (P60615 whole entry, looked up): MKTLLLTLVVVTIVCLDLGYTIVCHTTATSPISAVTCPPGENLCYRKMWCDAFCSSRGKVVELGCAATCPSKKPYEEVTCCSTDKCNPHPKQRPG
# PROTOCOL_TEXT: compounds binding labelled alpha-BTX control protein – biochemical, small-molecule microarray, Alexa647 label, 635/667 nm fluorescence, artefact control for SMM control protein annotation, profiling panel (AID 1117)
# TEST_SETTINGS: alpha-BTX-A647 binding fluorescence, higher = more signal
Use 0.7 as the dividing line for composite z-score, with the line itself on the 1 side and lower values as -1.

compound=CCOC(=O)C[C@H]1[C@H](OC(=O)c2cc3ccccc3oc2=O)[C@@H](NC(=O)c2ccccc2)c2cc(OCCCO)ccc2N1C(=O)c1ccccc1 class_assignment=-1
compound="COC(=O)C1=CC(CCCO)=CC(c2cccs2)N(Cc2cccc(OC(F)(F)F)c2)C=C1C(=O)OC (stereo not given)" class_assignment=1
compound=COC(=O)c1c(CC[C@@H](CO)NC(=O)N[C@@H](C)Cn2cc(-c3ccccn3)nn2)oc(C(C)=O)c1C(=O)OC class_assignment=-1
compound="CN(C)c1ccc(C(O)C2C=CC3C(=O)NC(=O)C3N2Nc2ccccn2)cc1 (stereo not given)" class_assignment=-1
compound=CC(C)C[C@@H]1NC(=O)[C@@H]2C[C@H](C(=O)NCCCCCCN)[C@H](c3cccc(OCCO)c3)N2C1=O class_assignment=1
compound=[N-]=[N+]=Nc1ccccc1[C@@H]1OC(c2ccc(OCCCO)cc2)=N[C@]1(Cc1ccccc1)C(=O)O class_assignment=1
compound=COC(=O)[C@@]1(Cc2ccc(OC)cc2)[C@H]2c3cc(C(=O)N(C)C)n(Cc4ccc(OC(F)(F)F)cc4)c3C[C@H]2CN1C(=O)c1ccccc1 class_assignment=-1
compound=CCCC[C@@H](O)C1=C(COC)C[C@H]2C(=O)N(C)C(=O)[C@H]2[C@H]1CO class_assignment=-1
compound=COc1ccc([Si](C)(C)[C@@H]2[C@@H](CC(=O)N3CCC[C@H]3CO)O[C@]3(C(=O)N(Cc4cccc(N5C(=O)COc6ccccc65)c4)c4ccccc43)[C@H]2C)cc1 class_assignment=-1
compound="CN1C(=O)C2C=CC(C(O)c3cccn3C)N(Nc3ccc([N+](=O)[O-])cc3[N+](=O)[O-])C2C1=O (stereo not given)" class_assignment=-1
compound="C=CCC(OC(C)=O)[C@@H]1[C@@H](N(Cc2cccc3ccccc23)C(=O)Cc2ccc(OC)cc2)c2cc(OCCCO)ccc2N1C(=O)c1ccc(-c2ccccc2)cc1 (stereo not given in full)" class_assignment=-1
compound=CCCCC(=C=CC[C@H](O)c1ccc(OCCO)cc1)CCO class_assignment=-1
compound=COc1ccc(C#Cc2ccc3c(c2)[C@]2(C(=O)N3)[C@H](c3ccc(OCCO)cc3)N3[C@H](c4ccccc4)[C@H](c4ccccc4)OC(=O)[C@H]3[C@@H]2C(=O)NC[C@H](O)c2ccccc2)cc1 class_assignment=1
compound="N#Cc1ccc(NN2C(C(O)c3ccc(Br)cc3)C=CC3C(=O)N(c4ccccc4)C(=O)C32)cc1 (stereo not given)" class_assignment=1

###

# PROTOCOL_TEXT: compound effects on hepatocellular carcinoma cell viability – HepG2, calcein-AM fluorescence, 48 h, basal, profiling panel (AID 1164); further: test concentration not given here
# TEST_SETTINGS: higher = more signal
Use -0.6 as the dividing line for z-score, with the line itself on the T side and lower values as F.

compound=CCOC(=O)C1=C[C@@H](C(C)(C)C)N(S(=O)(=O)c2ccc(C)cc2)[C@H]1c1cccc2ccccc12 class_assignment=F
compound=O=C(O)[C@@H]1[C@@H]2C(=O)N(c3ccccc3)C(=O)[C@@H]2C[C@@H]1Sc1ccccc1 class_assignment=F
compound=COC(=O)[C@@]1(Cc2ccc(OC)cc2)[C@H]2c3cc(C(=O)N4CCCC4)n(CCO)c3C[C@H]2CN1C(=O)c1ccccc1 class_assignment=T
compound="COc1cc(OC)c(C(O)C2C=CC3C(=O)N(Cc4ccccc4)C(=O)C3N2n2cnnc2)cc1Br (stereo not given)" class_assignment=T
compound=CCOC(=O)C[C@H]1[C@H](OC(=O)c2ccc(C(=O)c3ccccc3)cc2)[C@@H](NC(=O)c2ccc3ccccc3n2)c2cc(OCCCO)ccc2N1C(=O)Cc1ccc(OC)cc1 class_assignment=T
compound=CCOC(=O)C[C@H]1[C@H](OC(=O)Cc2ccc3c(c2)OCO3)[C@@H](NC(=O)C2CCCCC2)c2cc(OCCCO)ccc2N1C(=O)c1ccccc1 class_assignment=T
compound="CC1CC/C=C\\[C@H]2OC34C=CCN(Cc5ccccc5)C(=O)[C@H]3N(C(CO)C(C)C)C(=O)[C@@H]4C2C(=O)O1 (stereo not given in full)" class_assignment=T
compound="CN1C2C=C(CCCO)C(C3C(=O)N(C(N)=O)C(=O)C32)C1C1CC1 (stereo not given)" class_assignment=T
compound="CN1C(=O)C2C=CC(C(O)c3cccn3C)N(Nc3ccc([N+](=O)[O-])cc3[N+](=O)[O-])C2C1=O (stereo not given)" class_assignment=F
compound=COc1ccc([Si](C)(C)[C@@H]2[C@@H](CCO)O[C@]3(C(=O)N(Cc4ccccc4)c4ccc(N5CCOC5=O)cc43)[C@H]2C)cc1 class_assignment=F
compound=CO[C@H]1O[C@H](CO)[C@@H](OC(=O)CCc2ccccc2)[C@@H]2OC(=O)[C@@H](Cc3ccccc3)C/C=C/C[C@H](Cc3ccccc3)C(=O)O[C@@H]12 class_assignment=T
compound=O=C1C[C@]2(c3ccc([N+](=O)[O-])cc3)C(=O)N(C3CC3)c3cc(CO)ccc3[C@H]2N1CC12CC3CC(CC(C3)C1)C2 class_assignment=F
compound=O=C1N(CCS(=O)(=O)c2ccccc2)c2ccccc2[C@H]2OC(c3ccc(OCCCO)cc3)=N[C@@]12Cc1ccccc1 class_assignment=F
compound="O=C1NC(=O)C2C1C=CC(C(O)c1ccco1)N2Nc1ccc(Cl)cc1Cl (stereo not given)" class_assignment=F
compound=CCOC(=O)C=Cc1cccc(C)c1O class_assignment=F
compound=C=CCNC(=O)[C@@H]1[C@H]2C(=O)O[C@H](c3ccccc3)[C@H](c3ccccc3)N2[C@H](c2ccccc2OCCO)[C@@]12C(=O)Nc1ccc(C#CCCO)cc12 class_assignment=T
compound="CCCCN1CC=CC23O[C@@H]4/C=C\\CCC(C)OC(=O)C4[C@H]2C(=O)N(CCCO)[C@@H]3C1=O (stereo not given in full)" class_assignment=T
compound=CCOC(=O)C[C@H]1[C@H](OC(=O)c2cc3ccccc3oc2=O)[C@@H](NC(=O)c2ccc3ccccc3n2)c2cc(OCCCO)ccc2N1C(=O)Cc1ccc(OC)cc1 class_assignment=T
compound="CC(CO)N1C(=O)[C@@H]2[C@H]3C(=O)OCC=C[C@H]3OC23C=CCN(Cn2nnc4ccccc42)C(=O)[C@@H]13 (stereo not given in full)" class_assignment=F
compound="COc1cc2c(cc1O)C(c1ccc(CN3CCCC3)cc1)N(Cc1cc3c(cc1Br)OCO3)CC2 (stereo not given)" class_assignment=T
compound=COc1ccc(CCNC(=O)[C@@]2(c3ccc([N+](=O)[O-])cc3)CC(=O)N(C3CCCCC3)[C@@H]2c2ccc(CO)cc2)cc1 class_assignment=T
compound=CCCC[C@@H](O)C1=C(COC)C[C@H]2C(=O)N(C)C(=O)[C@H]2[C@H]1CO class_assignment=T
compound=NC(=O)NCC#Cc1ccc2c(c1)[C@]1(C(=O)N2)[C@H](c2ccccc2OCCO)N2[C@H](c3ccccc3)[C@H](c3ccccc3)OC(=O)[C@H]2[C@@H]1C(=O)NC[C@H](O)c1ccccc1 class_assignment=T
compound="COc1cc2c(cc1O)C(C1CC1)N(Cc1cccc(OC(F)(F)F)c1)CC2 (stereo not given)" class_assignment=F
compound="CCCCCN1CC=CC23O[C@@H]4/C=C\\CCCOC(=O)C4[C@H]2C(=O)N(C(C)CO)[C@@H]3C1=O (stereo not given in full)" class_assignment=T
compound=CC(C)NC(=O)[C@@]1(C)c2ccccc2C(=O)N(Cc2ccc(OC(F)(F)F)cc2)[C@H]1c1ccc(CO)cc1 class_assignment=T
compound=O=C(c1ccccc1)N1C(=O)[C@]2(Cc3ccccc31)N=C(c1ccc(OCCCO)cc1)O[C@@H]2c1ccccc1 class_assignment=F
compound=CCCCNC(=O)c1ccc(C#CC(C)(C)C)c(OC(C)=O)c1 class_assignment=F
compound=[N-]=[N+]=Nc1ccccc1C[C@]1(C(=O)NCCN2CCOCC2)COC(c2ccc(OCCCO)cc2)=N1 class_assignment=T
